Data origin: ChEMBL document CHEMBL1201862

Each entry below lists one item and its recorded GI50 value.
- Tested on: EKVX
- EXPERIMENT NOTES: NCI tumour cell line growth inhibition, 48 h
The source made the active and inactive calls. No stated cut-off is given here; in the data, active = GI50 up to about 1.1 µM and inactive = higher. Where a SMILES comes first, the peptide text is derived from it. [ ]: non-standard residue; d: D form. The star is where a group is joined. ξ: configuration not given here. NMeF = CN[CH](Cc1ccccc1)C(=O)O; ξNMe2Val = CC(C)C(C(=O)*)N(C)C; NMeV = CN[CH](C(=O)O)C(C)C; OtBu = CC(C)(C)O*

COMPOUND	GI50
COc1cc2cnc3c4ccccc4ccc3c2cc1OC	6.73 µM (inactive)
CCn1c(=O)c2ccccc2n2c(=O)c3cc4ccccc4cc3nc12	> 100 µM (inactive)
CC(C)(C)C(=O)C(C(=O)C(C)(C)C)C(=O)C(C)(C)C	> 100 µM (inactive)
O=c1c2c(nc3[nH]ccn13)CCCC2	> 10 µM (inactive)
O=c1c2ccccc2n2c(-c3ccccc3O)nnc2n1-c1ccccc1	> 100 µM (inactive)
Cc1cc(C)c(NC(=S)NC(=O)c2ccccc2)cc1C	> 100 µM (inactive)
CC(C)C(=S)N(C)O	23.1 µM (inactive)
N#C[C@H](c1nc2ccccc2s1)c1nc2ccccc2nc1Cl	> 100 µM (inactive)
Cc1ccc2[nH]c3c(C)c4ccncc4c(C)c3c2c1	1.47 µM (inactive)
CC(C)C(C(=O)N(C)C(Cc1ccccc1)C(=O)N(C)C(C(=O)N(C)C(C(=O)N1CCCC1C(=O)OC(C)(C)C)C(C)C)C(C)C)N(C)C (stereo not given) (ξNMe2Val-[NMeF][NMeV][NMeV]P-OtBu; configuration not given here)	64 µM (inactive)

###

- Tested on: HT-29
- EXPERIMENT NOTES: NCI tumour cell line growth inhibition, 48 h
The source made the active and inactive calls. Rule as the data show it: active = GI50 up to about 1.1 µM and inactive = higher.
Labels: active, inactive

MOLECULE	ASSIGNED CATEGORY
Cc1ccc(S(=O)(=O)ON2C(=O)c3cccc4cc([N+](=O)[O-])cc(c34)C2=O)cc1	inactive
C/C(=N\NC(=S)Nc1ccc(Cl)cc1)c1nc2cccnc2[nH]1	inactive
CCOC(=O)CC(=O)C(=O)NN=C1NCCN1	inactive
CC(C)CNC(=O)Cn1c(-c2ccccc2)cc2ccccc21	inactive
COc1cccc2c1C(=O)c1c(O)c3c(c(O)c1C2=O)C[C@@](O)(C(=O)CO)CC3OC1CC(N)C(OC2CCCCO2)C(C)O1 (stereo not given in full)	active
CN(CCCNC(=O)c1cn(C)c2c1ccc1cc(Cl)ccc12)CCCNC(=O)c1cn(C)c2c1ccc1cc(Cl)ccc12	inactive
CC(=O)C(C(c1ccccc1)N1CCOCC1)N1CCOCC1 (stereo not given)	inactive
O=C(c1ccccc1)c1cc(-c2ccccc2)c(-c2ccccc2)[nH]c(=O)c1=O	inactive
CC(Nc1n[nH]c(=O)c2c1nnn2Cc1ccccc1)c1ccccc1 (stereo not given)	inactive
NS(=O)(=O)c1nnc(NS(=O)(=O)c2ccc(Cl)cc2)s1	inactive

###

- Test system: NCI-H23
- EXPERIMENT NOTES: NCI tumour cell line growth inhibition, 48 h
Active and inactive are the calls of the source. Cut-off read from the data, not from the text of the source: active = GI50 up to about 1.1 µM and inactive = higher.
Classes used: yes = active, no = inactive

MOLECULE	ASSIGNED CATEGORY
CCOC(=O)CCC(NC(=O)c1ccc(CNc2nc3ccccc3nc2C(=O)OCC)cc1)C(=O)OCC (centres undefined)	no
O=C1NC(Cc2c[nH]c3ccccc23)C(=O)N2C(C3CCCCC3)c3[nH]c4ccccc4c3C[C@@H]12 (some centres undefined)	no
C/C=C1/C(=O)O[C@]23C=C[C@@H]4C(C(=O)OC)=CO[C@H](O[C@@H]12)[C@@H]43 [PLUMERICIN]	yes
O=C1Nc2cc([N+](=O)[O-])c(Br)cc2C1=O	no
COc1cc2nc(Sc3c([N+](=O)[O-])ncn3C)[nH]c2cc1OC	no
C=C(C)[C@@H](O)[C@H](O)C[C@H](C)C1CC[C@]2(C)C1=CC[C@@H]1[C@@]3(C)CC[C@@H](OC(C)=O)C(C)(C)[C@@H]3C[C@@H](OC3OC(COC(C)=O)C(O)C(O)C3O)[C@]12C (some centres undefined)	no
CC1(C)CCC[C@]2(C)[C@H]3[C@H](C#N)c4cc(O)c(O)cc4O[C@@]3(C)CC[C@@H]12	no
CC12CCC(CC1(Cl)Cl)C2 (centres undefined)	no
CCc1nc(N)nc(N)c1-c1ccc(NC)c([N+](=O)[O-])c1	yes
O=C(CCCNc1nc(-c2ccccc2)cs1)c1cccs1	no
COc1cccc2c1C(=O)c1c(O)c3c(c(O)c1C2=O)C[C@@](O)(C(=O)CO)CC3OC1CC(N)C(OC2CCCCO2)C(C)O1 (some centres undefined)	yes
Cc1cc2c(=O)cc(-c3ccc(Cl)cc3Cl)oc2c(C(=O)O)c1C	no
CN(C)CCNC(=O)c1cccc2nc3ccc4cccnc4c3nc12	yes
O=C1/C(=c2\s/c(=C\c3ccccc3)c(=O)n2-c2ccccc2)SC(=S)N1c1ccccc1	no
O=C(Nc1c(O)[nH]c(=S)[nH]c1=O)c1ccc2ccccc2n1	no
O=C(CN1CCCCC1)c1ccc2[nH]c(=O)oc2c1	no
Cc1c2cc[n+](COC(=O)c3ccccc3)cc2c(C)c2c1[nH]c1ccccc12	yes
NCCCSCC(=O)O	no
O=c1c2ccccc2nc(-c2ccccc2)n1NCC1(O)OCC(O)C(O)C1O (centres undefined)	no

###

- System: LOX IMVI
- EXPERIMENT NOTES: NCI tumour cell line growth inhibition, 48 h
Active and inactive are the calls of the source. No stated cut-off is given here; in the data, active = GI50 up to about 1.1 µM and inactive = higher.
RECORDED ENDPOINT: GI50

COMPOUND	RECORDED ENDPOINT	REPORTED RESULT
Clc1ccc(Cc2nc3cc(CCN4CCN(c5ccccc5)CC4)ccc3[nH]2)cc1	GI50	12.6 µM (inactive)
CCCCCCCCCC(=O)OCC1OC(n2cc(F)c(=O)[nH]c2=O)C(N)C(OC(=O)CCCCCCCCC)C1O (centres undefined)	GI50	16.5 µM (inactive)
CC(=O)OCC1OC(OCCCOP(=O)(OCCC#N)OCC2OC(n3cnc4c(N)ncnc43)C(OC(=O)c3ccccc3)C2OC(=O)c2ccccc2)C(OC(C)=O)C(OC(C)=O)C1OC(C)=O (centres undefined)	GI50	> 100 µM (inactive)
Cc1cc(N)c2ccccc2[n+]1CCCCCCCCCCNc1cc(C)[n+](CCCCCCCCCC[n+]2c(C)cc(N)c3ccccc32)c2ccccc12	GI50	1.79 µM (inactive)
O=[N+]([O-])c1ccc2[nH]nc(OCc3ccccc3Cl)c2c1	GI50	28.6 µM (inactive)
CCOC(=O)c1cn2c(n1)sc1cc(OC)ccc12	GI50	18.2 µM (inactive)
Nc1ncnc2c1ncn2C1CC(OC2CCCCO2)C(CO)O1 (centres undefined)	GI50	> 100 µM (inactive)
O=C1C(CN2CCCC2)CCC1CN1CCCC1 (centres undefined)	GI50	20.8 µM (inactive)
COc1ccc(/C=N/N2C(=O)c3c(N)c(C#N)c(-c4ccccc4)c(-c4ccccc4)c3C2=O)cc1	GI50	> 100 µM (inactive)

###

- System: NCI-H23
- EXPERIMENT NOTES: NCI tumour cell line growth inhibition, 48 h
Activity calls are given as the source filed them. No stated cut-off is given here; in the data, active = GI50 up to about 1.1 µM and inactive = higher.
Classes used: 1.0 (active), 0.0 (inactive)

COMPOUND	TGT	ASSIGNED CATEGORY
COC(Cc1cc(C(O)(c2ccc(C(C)(C)C)cc2)c2cc(CC(OC)(c3cc(C(OC)(c4ccc(C(C)(C)C)cc4)c4ccc(C(C)(C)C)cc4)c(C)cc3C)c3cc(C(OC)(c4ccc(C(C)(C)C)cc4)c4ccc(C(C)(C)C)cc4)c(C)cc3C)c(C)cc2C)c(C)cc1C)(c1cc(C(OC)(c2ccc(C(C)(C)C)cc2)c2ccc(C(C)(C)C)cc2)c(C)cc1C)c1cc(C(OC)(c2ccc(C(C)(C)C)cc2)c2ccc(C(C)(C)C)cc2)c(C)cc1C	NCI-H23	0.0
COC(=O)C12C3C4C1C1C2C3C41I (stereo not drawn)	NCI-H23	0.0
CC(Cn1c2c(c3cc(O)ccc31)CCc1ccc(O)cc1-2)N(C)C (stereo not drawn)	NCI-H23	0.0
COc1cc(C2C(Cl)C(=O)N2NC(=O)c2ccccc2O)ccc1O (stereo not drawn)	NCI-H23	0.0
CC(=O)c1c(SCCN2CCCC2)n(-c2ccccc2)c(=S)n(-c2ccccc2)c1=O	NCI-H23	0.0
O=C(O)CSSCC(=O)O	NCI-H23	0.0
O=C(Nc1cccc(Cl)c1)C(=O)C(C(=O)c1ccc2ccccc2c1)C1OC(=O)c2ccccc21 (stereo not drawn)	NCI-H23	0.0
CNc1ccc(-c2nc3cc(C)ccc3o2)cc1	NCI-H23	0.0
COC1=C2CC(C)CC(OC)C(OC(=O)CN)[C@H](C)/C=C(\C)C(OC(N)=O)C(OC)/C=C\C=C(/C)C(=O)NC(=CC1=O)C2=O (stereo partly drawn)	NCI-H23	1.0
Cc1nc(C(N)=S)sc1C(=O)CC(=O)C(=O)Nc1c(C(C)C)cccc1C(C)C	NCI-H23	0.0
CCO/C([O-])=C(/C=O)[n+]1c(C)n(C)c2ccccc21	NCI-H23	0.0
O=C1N/C(=N\N=C\c2ccccc2)C(c2ccccc2)O1 (stereo not drawn)	NCI-H23	0.0
O=C(c1ccccc1)C(Nc1ccc2ccccc2c1)c1ccccc1 (stereo not drawn)	NCI-H23	0.0
CC1(C)C2CCC1(C)C(NC(=O)CCN1CCOCC1)C2 (stereo not drawn)	NCI-H23	0.0
O=C(/C=C/c1cc(F)ccc1F)OCCc1ccccc1	NCI-H23	0.0
C[C@H]1C[C@H]2[C@@H]3C(C)(C)O[C@]4(O)C(=O)[C@]5(O)[C@@H](C)CC[C@H]1[C@]25C(=O)[C@]34C	NCI-H23	0.0
CC1=C(c2ccccc2)CON(c2ccccc2)C1	NCI-H23	0.0
COc1ccc(C2=NN=C3C(c4ccccc4)=Nc4ccccc4N3C2)cc1	NCI-H23	0.0
Oc1cc(/C=C/c2ccccc2)nc2cc3c(cc12)OCO3	NCI-H23	0.0
CCOC(=O)c1cn2c(n1)sc1cc(OC)ccc12	NCI-H23	0.0
O=C1CC2Sc3ccccc3N=C2N1c1ccc(Cl)cc1Cl (stereo not drawn)	NCI-H23	0.0
C[n+]1ccc2/c(=C\C#N)c3ccccc3n21	NCI-H23	0.0
C=C1CC[C@H](O)C(C)(C)[C@@H]1CC/C(C)=C/CC/C=C(\C)CC/C=C(\C)CCC=C(C)C	NCI-H23	0.0
CN(C)CCC(=O)[C@@]1(O)CC[C@H]2[C@@H]3CC=C4C[C@@H](O)CC[C@]4(C)[C@H]3CC[C@@]21C	NCI-H23	0.0
C=C1C(=O)OC2/C=C(\C)CC/C=C(\C)CC(OC(=O)/C(=C/CO)CO)[C@@H]12 (stereo partly drawn)	NCI-H23	0.0
O=C(/C=C/c1ccc2c(c1)OCO2)CC(=O)C(=O)c1c[nH]c2ccccc12	NCI-H23	0.0
COC(=O)C1Cc2c(n(Cc3ccccc3)c3ccccc23)C(CCC(=O)O)N1C(C)C (stereo not drawn)	NCI-H23	0.0
Cc1cc2c(C)n(Cc3ccccc3Cl)nc2c(C(=O)O)c1C	NCI-H23	0.0
CC(C)(C)OC(=O)N1CC(C)(C)N2C(=O)C3(CCCO3)C12 (stereo not drawn)	NCI-H23	0.0
C[C@]12CC(C=O)C(=O)C(O)=C1CC[C@@H]1C2CC[C@@]2(C)C1CC[C@]2(C)O (stereo partly drawn)	NCI-H23	0.0
CCC/C=C1\CCC(CN(C)C)C1=O (stereo not drawn)	NCI-H23	0.0
Cc1ccc(-c2cc(N)n(-c3nc4c(c(=O)n(C)c(=O)n4C)n3C)n2)cc1	NCI-H23	0.0
CCn1c(=O)c2ccccc2n2c(=O)c3cc4ccccc4cc3nc12	NCI-H23	0.0
CCCCCCCCCCC(O)[C@H]1CCC(C2CC[C@H]([C@H](O)CCCCCCCCCCC(O)CC3=CC(C)OC3=O)O2)O1 (stereo partly drawn)	NCI-H23	1.0
CCN(CC)C(=O)Cc1[nH][nH]c(=O)c1C(=O)N(CC)CC	NCI-H23	0.0
O=C(O)CCCNS(=O)(=O)c1ccccc1	NCI-H23	0.0
C=C1C(=O)O[C@H]2C/C(C)=C/CC/C(C)=C/CC[C@@](C)(O)[C@@H](I)C[C@@H]12	NCI-H23	1.0
Cc1ccccc1-c1cc(=O)c2cc(C)c(C)c(C(=O)O)c2o1	NCI-H23	0.0
